Attribution: paper PMC9944328

# assay.system: SSTR2 (Homo sapiens, UniProt P30874)
# test.method.notes: SSTRs Gi-mediated cAMP inhibition, GloSensor, HEK293, 5 μM forskolin, 15 min room temperature (SSTR2 wild-type)
# Type: cell-based
# measurement.context: EC50, cAMP inhibition best-fit; Q126A set; WT-3
# Sequence (P30874 whole entry): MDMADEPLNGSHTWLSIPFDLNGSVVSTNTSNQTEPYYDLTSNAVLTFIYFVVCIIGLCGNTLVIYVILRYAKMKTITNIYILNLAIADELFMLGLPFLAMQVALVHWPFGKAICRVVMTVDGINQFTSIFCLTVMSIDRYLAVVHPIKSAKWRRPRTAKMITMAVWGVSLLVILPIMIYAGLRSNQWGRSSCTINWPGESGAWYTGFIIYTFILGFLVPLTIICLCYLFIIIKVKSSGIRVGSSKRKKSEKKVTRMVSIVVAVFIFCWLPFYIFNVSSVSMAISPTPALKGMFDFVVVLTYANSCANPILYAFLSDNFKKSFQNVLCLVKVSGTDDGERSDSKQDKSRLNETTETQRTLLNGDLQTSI
assay.readout: EC50
Quote the value and follow it with the unit of measurement.

Query: Please look up its EC50: `N#Cc1cccc(-c2ccc3ncc(-c4cc(F)cc(F)c4)c(N4CCC(N)CC4)c3c2)c1O`
Response: 0.845 nM

###

# System: SSTR2 mutants
# test.method.notes: SSTRs Gi-mediated cAMP inhibition, GloSensor, HEK293, 5 μM forskolin, 15 min room temperature (SSTR2 mutants)
# Type: cell-based, human
# measurement.context: read-out: EC50 (best-fit value); Y205A-3 (run 3)
assay.readout: pEC50
Numbers only, as −log10 of the molar value.

Query: Please look up its pEC50: `N#Cc1cccc(-c2ccc3ncc(-c4cc(F)cc(F)c4)c(N4CCC(N)CC4)c3c2)c1O`
Response: 9.74

###

# Tested on: SSTR2 mutants
# test.method.notes: SSTRs Gi-mediated cAMP inhibition, GloSensor, HEK293, 5 μM forskolin, 15 min room temperature (SSTR2 mutants)
# Format: cell-based, human
# measurement.context: I284A, run 3, best-fit
assay.readout: pEC50
Numbers only, as −log10 of the molar value.

Query: Please look up its pEC50: `N#Cc1cccc(-c2ccc3ncc(-c4cc(F)cc(F)c4)c(N4CCC(N)CC4)c3c2)c1O`
Response: 8.89

###

# Tested on: SSTR2 mutants
# test.method.notes: SSTRs Gi-mediated cAMP inhibition, GloSensor, HEK293, 5 μM forskolin, 15 min room temperature (SSTR2 mutants)
# Format: cell-based, human
# measurement.context: Gi signaling; SSTR2 I284ECL3A; n=3
assay.readout: pEC50
One number for each entry, as −log10 of the molar value.

Query: Could you share what pEC50 was measured for `N#Cc1cccc(-c2ccc3ncc(-c4cc(F)cc(F)c4)c(N4CCC(N)CC4)c3c2)c1O` , tested on SSTR2 mutants?
Response: 8.91

###

# assay.system: SSTR2 (Homo sapiens, UniProt P30874)
# test.method.notes: NanoBiT β-arrestin 1 recruitment assay, HEK293 (SSTR2 wild-type)
# Assay type: cell-based
# Design: Human full-length SSTR wild-type and mutant vectors were C-terminally fused; expressed in transfected cells; host or cells: HEK293
# measurement.context: EC50 (best-fit), WT-3 (F127A set)
# Sequence (P30874 whole entry): as above
# Sequence (P49407 whole entry partner): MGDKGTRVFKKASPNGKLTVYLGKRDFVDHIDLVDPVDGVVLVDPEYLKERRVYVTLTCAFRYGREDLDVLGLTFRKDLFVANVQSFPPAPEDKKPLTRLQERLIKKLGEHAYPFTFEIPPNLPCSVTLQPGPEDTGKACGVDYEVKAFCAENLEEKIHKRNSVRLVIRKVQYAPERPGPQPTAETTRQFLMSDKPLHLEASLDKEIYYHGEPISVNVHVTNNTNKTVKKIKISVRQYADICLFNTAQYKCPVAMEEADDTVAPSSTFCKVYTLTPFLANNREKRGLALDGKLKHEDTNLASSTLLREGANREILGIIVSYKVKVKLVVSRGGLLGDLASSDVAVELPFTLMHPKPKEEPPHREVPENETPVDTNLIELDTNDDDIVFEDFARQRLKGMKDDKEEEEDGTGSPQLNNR
assay.readout: EC50 (µM)
Numbers only, in µM.

Query: Please look up its EC50: N#Cc1cccc(-c2ccc3ncc(-c4cc(F)cc(F)c4)c(N4CCC(N)CC4)c3c2)c1O [paltusotine]
Response: 0.292

###

# assay.system: SSTR2 (Homo sapiens)
# test.method.notes: SSTRs Gi-mediated cAMP inhibition, GloSensor, HEK293, 5 μM forskolin, 15 min room temperature (SSTR2 wild-type)
# Type: cell-based
# measurement.context: EC50, cAMP inhibition best-fit; F127A set; WT-2
assay.readout: EC50
Quote the value and follow it with the unit of measurement.

Query: Please look up its EC50: `N#Cc1cccc(-c2ccc3ncc(-c4cc(F)cc(F)c4)c(N4CCC(N)CC4)c3c2)c1O`
Response: 1.16 nM

###

# assay.system: SSTR2 (Homo sapiens, UniProt P30874)
# test.method.notes: NanoBiT β-arrestin 1 recruitment assay, HEK293 (SSTR2 wild-type)
# Format: cell-based
# Design: Human full-length SSTR wild-type and mutant vectors were C-terminally fused; expressed in transfected cells; host or cells: HEK293
# measurement.context: Best-fit EC50, SSTR2-WT control of I284A-1, T194A-1, I195A-3, L99A-3
assay.readout: EC50 (nM)
One number for each entry, in nM.

Query: Please look up its EC50: `N#Cc1cccc(-c2ccc3ncc(-c4cc(F)cc(F)c4)c(N4CCC(N)CC4)c3c2)c1O`
Response: 420

###

# Tested on: SSTR2 mutants
# test.method.notes: NanoBiT β-arrestin 1 recruitment assay, HEK293 (SSTR2 mutants)
# Format: cell-based, human
# measurement.context: read-out: Best-fit EC50; SSTR2 I284A, run 1
assay.readout: EC50 (µM)
One number for each entry, in µM.

Query: Could you share what EC50 was measured for N#Cc1cccc(-c2ccc3ncc(-c4cc(F)cc(F)c4)c(N4CCC(N)CC4)c3c2)c1O [paltusotine] , tested on SSTR2 mutants?
Response: 0.181

###

# Test system: SSTR2 mutants
# test.method.notes: Bystander BRET endosomal trafficking (β-arrestin 1-Nluc, FYVE-mVenus), HEK293 (SSTR2 mutants)
# measurement.context: best-fit value, F294A-2 (run 2)
assay.readout: pEC50
Answers are plain numbers, as −log10 of the molar value.

Query: Could you share what pEC50 was measured for `N#Cc1cccc(-c2ccc3ncc(-c4cc(F)cc(F)c4)c(N4CCC(N)CC4)c3c2)c1O` , tested on SSTR2 mutants?
Response: 5.89

###

# assay.system: SSTR2 (Homo sapiens, UniProt P30874)
# test.method.notes: SSTRs Gi-mediated cAMP inhibition, GloSensor, HEK293, 5 μM forskolin, 15 min room temperature (SSTR2 wild-type)
# Type: cell-based
# measurement.context: EC50, WT-1, run paired with T194H
assay.readout: pEC50
One number for each entry, as −log10 of the molar value.

Query: Please look up its pEC50: N#Cc1cccc(-c2ccc3ncc(-c4cc(F)cc(F)c4)c(N4CCC(N)CC4)c3c2)c1O [paltusotine]
Response: 8.94

###

# assay.system: SSTR3 (Homo sapiens, UniProt P32745)
# Construct: The human full-length SSTRs and mutants were cloned into the pcDNA3.1+ vector; expressed in transfected cells; host or cells: HEK293 (ATCC, CRL-1573)
# Sequence (P32745 whole entry): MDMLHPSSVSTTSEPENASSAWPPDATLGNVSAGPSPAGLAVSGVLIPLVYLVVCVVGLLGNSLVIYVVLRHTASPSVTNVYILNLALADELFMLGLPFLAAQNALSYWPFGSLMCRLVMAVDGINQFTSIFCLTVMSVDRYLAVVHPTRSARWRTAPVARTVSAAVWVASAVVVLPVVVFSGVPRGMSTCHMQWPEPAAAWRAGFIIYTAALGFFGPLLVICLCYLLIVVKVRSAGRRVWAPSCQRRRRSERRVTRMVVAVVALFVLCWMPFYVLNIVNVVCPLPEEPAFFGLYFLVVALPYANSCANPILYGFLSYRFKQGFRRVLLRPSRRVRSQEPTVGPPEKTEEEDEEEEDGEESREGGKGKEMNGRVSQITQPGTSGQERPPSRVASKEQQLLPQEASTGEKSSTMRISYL
# test.method.notes: SSTRs Gi-mediated cAMP inhibition, GloSensor, HEK293 (SSTR3 wild-type)
# Format: cell-based
# measurement.context: best-fit; SSTR3 WT-1 (H192T set); read-out: EC50
assay.readout: pEC50
Answers are plain numbers, as −log10 of the molar value.

Query: Could you share what pEC50 was measured for `N#Cc1cccc(-c2ccc3ncc(-c4cc(F)cc(F)c4)c(N4CCC(N)CC4)c3c2)c1O` , tested on SSTR3 (Homo sapiens, UniProt P32745)?
Response: 7.35

###

# assay.system: SSTR2 (Homo sapiens, UniProt P30874)
# test.method.notes: SSTRs Gi-mediated cAMP inhibition, GloSensor, HEK293, 5 μM forskolin, 15 min room temperature (SSTR2 wild-type)
# Type: cell-based
# measurement.context: EC50, WT-1, run paired with Y205R
assay.readout: pEC50
One number for each entry, as −log10 of the molar value.

Query: Please look up its pEC50: `N#Cc1cccc(-c2ccc3ncc(-c4cc(F)cc(F)c4)c(N4CCC(N)CC4)c3c2)c1O`
Response: 9.27

###

# assay.system: UniProtKB P30874
# test.method.notes: SSTRs Gi-mediated cAMP inhibition, GloSensor, HEK293, 5 μM forskolin, 15 min room temperature (SSTR2 wild-type)
# Assay type: cell-based
# measurement.context: EC50, subtype selectivity series, Suppl. Tables 4/5; SSTR2-WT; n=6
assay.readout: EC50 (nM)
Numbers only, in nM.

Query: Please look up its EC50: N#Cc1cccc(-c2ccc3ncc(-c4cc(F)cc(F)c4)c(N4CCC(N)CC4)c3c2)c1O [paltusotine]
Response: 2.08

###

# assay.system: SSTR2 (Homo sapiens)
# test.method.notes: NanoBiT β-arrestin 1 recruitment assay, HEK293 (SSTR2 wild-type)
# Format: cell-based
# Set-up: Human full-length SSTR wild-type and mutant vectors were C-terminally fused; expressed in transfected cells; host or cells: HEK293
# measurement.context: EC50 (best-fit), WT-2 (F127A set)
assay.readout: pEC50
Give bare numbers, as −log10 of the molar value.

Query: Could you share what pEC50 was measured for `N#Cc1cccc(-c2ccc3ncc(-c4cc(F)cc(F)c4)c(N4CCC(N)CC4)c3c2)c1O` , tested on SSTR2 (Homo sapiens)?
Response: 6.57

###

# Tested on: SSTR2 mutants
# test.method.notes: Bystander BRET endosomal trafficking (β-arrestin 1-Nluc, FYVE-mVenus), HEK293 (SSTR2 mutants);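 note: Read-out is the BRET ratio between Nluc-fused β-arrestin 1 and the early endosome marker FYVE-mVenus, measured after ligand addition with coelenterazine h as substrate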
# measurement.context: best-fit value, K291A-2 (run 2)
assay.readout: EC50 (µM)
Give bare numbers, in µM.

Query: Could you share what EC50 was measured for N#Cc1cccc(-c2ccc3ncc(-c4cc(F)cc(F)c4)c(N4CCC(N)CC4)c3c2)c1O [paltusotine] , tested on SSTR2 mutants?
Response: 0.0839

###

# assay.system: SSTR2 (Homo sapiens, UniProt P30874)
# test.method.notes: SSTRs Gi-mediated cAMP inhibition, GloSensor, HEK293, 5 μM forskolin, 15 min room temperature (SSTR2 wild-type)
# Format: cell-based
# measurement.context: EC50, WT-2, run paired with I195M
assay.readout: EC50 (nM)
One number for each entry, in nM.

Query: Please look up its EC50: `N#Cc1cccc(-c2ccc3ncc(-c4cc(F)cc(F)c4)c(N4CCC(N)CC4)c3c2)c1O`
Response: 2.02
